molecules and their reported %Inh
Tested on: AAK1;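 note: KINOMEscan kinase panel screen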
Details: concentration: 1 μM,replicates: in singlicate; n = 1
Note: unit % is implicit; provide only the numeric part.

Cc1ccc(Nc2ccnc(Nc3ccc4c(c3)CS(=O)(=O)C4)n2)cc1O.Cl
80
C[C@@H](Oc1cc(-n2cnc3ccc(-c4ccncc4)cc32)sc1C(N)=O)c1ccccc1Cl
60
Nc1nccc(-c2ccc3c(N)n[nH]c3c2)n1
65
CCNCC(Cc1ccccc1)NC(=O)c1cc(Br)c(-c2ccnc3[nH]ccc23)s1.Cl.Cl (centres unmarked)
39
CC(=O)Nc1ccc(-c2cc3ncnc(SCC(=O)O)c3s2)cc1
44

Lab note: FC(F)(F)c1cc(Br)cc(Nc2nccc(-c3cnn4ncccc34)n2)c1 gave %Inh of 32

Lab note: O=c1[nH]cc(-c2ccc(O)cc2)c2sc(-c3ccncc3)cc12 gave %Inh of 26

Documented %Inh of Cc1ccn2nc(-c3ccc(F)cc3)c(-c3ccncc3)c2c1.Cl : 0

Entry under test: C[C@@H](Oc1cc(-n2cnc3cc(-c4cnn(C)c4)ccc32)sc1C(N)=O)c1ccccc1Cl . Its %Inh was 82

Given item C[C@@H]1CNc2c(sc3ccc4nc(-c5ccncc5)ccc4c23)C(=O)N1 , the value recorded as its %Inh is 49

Value of measured %Inh for the entry O=C(NOCC1CC1)c1cc(Br)c(F)c(F)c1Nc1ccc(I)cc1Cl : 0

Measured %Inh, COc1cccc(OC)c1C(=O)Nc1cccc(-c2nn3ccccc3c2-c2ccnc(Nc3cccc(F)c3)n2)c1 : 0

Measured %Inh of O=C(Nc1ccc(Oc2ccc3nc(NC(=O)C4CC4)cn3n2)c(F)c1)c1cccn(-c2ccccc2)c1=O : 0

# %Inh of O=C(NCC1CC1)c1ccc(-c2cc(C(=O)NC3CC3)ccc2F)cc1 = 0

Reported %Inh of CCn1c(-c2nonc2N)nc2cncc(Br)c21 : 67

Briefly, %Inh measured for Cc1cccc(-c2nc(Nc3ccncc3)c3sccc3n2)n1 : 25

The molecule listed as CNC(=O)c1ccccc1Nc1nc(Nc2cccc(CS(C)(=O)=O)c2)ncc1C.O=CO shows %Inh equal to 85

In plain terms, CS(=O)c1ccc(-c2coc3ccc(-c4n[nH]c(=O)o4)cc23)cc1 (centres unmarked) has a documented %Inh of 21

Lookup result for O=C(Nc1ccccc1)c1cccc(Oc2ccc3nccn3n2)c1 ; measured %Inh: 1

Item: CC(=O)Nc1nc2cnc(Nc3cc(NC(=O)c4cccc(CC(C)(C)C#N)c4)ccc3C)nc2s1 | %Inh: 23

Looking up CN(c1ccccc1CNc1nc(Nc2ccc3c(c2)CC(=O)N3)ncc1C(F)(F)F)S(C)(=O)=O , I found its %Inh recorded as 10

Lab note: CN1CCN(CCNc2nc3cc(Oc4ccc(NC(=O)Nc5cc(C(F)(F)F)ccc5F)cc4)ccc3[nH]2)CC1.Cl.Cl gave %Inh of 0

%Inh for CC(C(=O)NC1CCN(c2ccnc(Nc3ccc(F)cc3)n2)C1)c1ccc(Cl)cc1 (centres unmarked) is 14

So, Cc1cccc2c(-c3ccncc3)c(-c3ccc(F)cc3)nn12.Cl ? Its %Inh was 14

The recorded %Inh for COc1cccc(C2=C(Nc3cccc(Cl)c3)C(=O)NC2=O)c1 is 0

Field %Inh (entry COC(=O)c1cccc(NC(=O)NC2CCN(c3ccnc(NCc4ccc(F)cc4)n3)CC2)c1 ) reads 0

// %Inh lookup, molecule = CS(=O)(=O)c1cccc(CNc2nc(Nc3ccc4c(c3)[C@@H]3C[C@@H]4CNC3=O)ncc2C(F)(F)F)c1 , result: 92.6
